Reference for the values: patent US7678784B2

molecular target: BACE1 enzyme (Homo sapiens, UniProt P56817); construct: The HEK293-9B.A1 cell line, which overexpresses the BACE1 enzyme, was derived from HEK293 cells; endogenous in cells; washed 48,000 x g pellet of cell homogenate; assay: Radioligand displacement assay with a radiolabeled BACE inhibitor on HEK293-9B.A1 cell homogenate; details: displacement of 1 nM tritiated radioligand, HEK293-9B.A1 homogenate, pH 5.0, 1.5 hr at 25° C.; read-out: Activity Rating (Activity based on IC50 values)
Sequence (P56817 46-501): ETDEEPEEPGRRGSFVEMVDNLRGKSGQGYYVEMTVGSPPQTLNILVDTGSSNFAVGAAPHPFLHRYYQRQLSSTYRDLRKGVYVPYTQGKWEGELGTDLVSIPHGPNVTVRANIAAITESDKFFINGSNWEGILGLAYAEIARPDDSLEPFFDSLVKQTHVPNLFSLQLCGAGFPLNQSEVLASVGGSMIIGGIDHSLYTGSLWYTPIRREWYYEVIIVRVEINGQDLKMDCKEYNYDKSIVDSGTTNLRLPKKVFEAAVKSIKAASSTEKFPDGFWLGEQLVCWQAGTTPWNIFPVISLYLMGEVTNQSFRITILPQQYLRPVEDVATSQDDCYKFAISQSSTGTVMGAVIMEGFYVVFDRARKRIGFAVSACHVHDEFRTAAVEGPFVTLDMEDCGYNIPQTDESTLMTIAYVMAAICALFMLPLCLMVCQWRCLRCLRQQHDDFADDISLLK
pIC50: −log10 of the molar value.
property: pIC50

Example results:
Input: Name the reported pIC50 value associated with the molecule CCON=C1CC(=O)N=C(N)NCc2cc(Cl)c(c(Cl)c2)NC(=O)CNCCC=CCOc2ccc1cc2 (single isomer, unassigned; isomer b) [Example 5]
Output: 7.30 to 8.30

Input: # lookup: pIC50 of CCON=C1CC(=O)N=C(N)NCc2cc(Cl)c(c(Cl)c2)NC(=O)CNCCCC=CCOc2ccc1cc2 (single isomer, unassigned; isomer b) [Example 8]
Output: > 8.30

Could you now look at the following molecule, please?
Input: Find the recorded pIC50 belonging to `CCON=C1CC(=O)N=C(N)NCc2cc(Cl)c(c(Cl)c2)NC(=O)CNCCCCCCOc2ccc1cc2` and report it.
Output: > 8.30
